Values were extracted from PubChem BioAssay (NCI).

test system: HCT-116 colon; test: NCI tumour cell line growth inhibition, 48 h
Recorded measurements of GI50, one per entry

compound: Cc1cc(O)ccc1O
experimental_system: HCT-116 colon
measure_name: GI50
value_reported: 16.9 µM

compound: CO/N=C(\COc1ccc2c(c1)oc(=O)c1cc(OC)ccc12)c1ccc(F)cc1
experimental_system: HCT-116 colon
measure_name: GI50
value_reported: 14.9 µM

compound: COc1cc2c3c(n(CCCCNC(=O)OCC4c5ccccc5-c5ccccc54)c(=O)c2cc1OC)-c1cc2c(cc1C3=O)OCO2
experimental_system: HCT-116 colon
measure_name: GI50
value_reported: 7.73 µM

compound: Cc1ccc(NSc2ccccc2[N+](=O)[O-])cc1
experimental_system: HCT-116 colon
measure_name: GI50
value_reported: 0.48 µM

Here's the next entry for you.
Problem: HCT-116 colon / GI50 / O=C1c2cccc3cccc(c23)C(=O)N1CCCCN1CCN(CCCCOc2ccc(-c3nc4ccc(N5CCOCC5)cc4[nH]3)cc2)CC1 : value?
Solution: > 100 µM

---

Recorded measurements of TGI, one per entry
tested on: IGROV1 ovarian; assay: NCI tumour cell line growth inhibition, 48 h

Here's what some known entries look like.
compound: C=CCC12CC(=O)C=C1CCC1(C2)OCCO1 (stereo unspecified)
experimental_system: IGROV1 ovarian
value_reported: > 100 µM
//
compound: CC(=O)O[C@H]1CC[C@H]2[C@@H]3CCC4=C(C(=O)C=CC4(C)OC(C)=O)[C@H]3CC[C@]12C (stereo partly specified)
experimental_system: IGROV1 ovarian
value_reported: > 100 µM
//
compound: Cn1cnc([N+](=O)[O-])c1SC1=NCCS1
experimental_system: IGROV1 ovarian
value_reported: > 100 µM
//
compound: Nc1ccc(C(=O)NN2C(=O)C(Cl)C2c2ccc([N+](=O)[O-])cc2)cc1 (stereo unspecified)
experimental_system: IGROV1 ovarian
value_reported: 16.6 µM
//
compound: O=C1c2cccc3cccc(c23)C(=O)N1CCCCN1CCN(CCCCOc2ccc(-c3nc4ccc(N5CCOCC5)cc4[nH]3)cc2)CC1
experimental_system: IGROV1 ovarian
value_reported: > 100 µM

Problem: # input compound: CCCC(=O)/C=C/S/C=C/C(=O)CCC ; wanted: its TGI
Solution: 47.9 µM

Problem: # input compound: Cc1ccc(-c2nc3c(C(=O)NCCN(C)C)cccc3[nH]2)cc1 ; wanted: its TGI
Solution: 41.9 µM

Problem: # input compound: CCN(CC)CCC(=O)c1ccccc1 ; wanted: its TGI
Solution: > 100 µM

Problem: # input compound: CC(=O)[O-].[Ni].c1ccc(/C(=N\Nc2ccccn2)c2ccccn2)cc1 ; wanted: its TGI
Solution: 29.7 µM

Problem: # input compound: Cc1[nH]n(-c2ccc(S(=O)(=O)O)cc2)c(=O)c1N=Nc1ccccc1 ; wanted: its TGI
Solution: > 100 µM

Problem: # input compound: O=C(O)C(Cc1cnc[nH]1)N=Cc1nc(-c2ccccc2)oc1O (stereo unspecified) ; wanted: its TGI
Solution: > 100 µM

---

test system: MDA-MB-435
Give your call using only these classes: True for active, False for inactive

The examples below pair each entry with its known result.
chemical_structure: COc1cc2c(cc1OCCCCCn1c(-c3ccco3)nc3ccccc31)N=C[C@@H]1CCCN1C2=O
experimental_system: MDA-MB-435
answer_label: True
//
chemical_structure: COc1cc(/C=C/c2sc3ccccc3[n+]2C)ccc1N(C)C
experimental_system: MDA-MB-435
answer_label: False
//
chemical_structure: CS(=O)(=O)Nc1cccc(-c2ccc3c(NC(=O)C4CC4)n[nH]c3c2)c1
experimental_system: MDA-MB-435
answer_label: True
//
chemical_structure: Cn1ccnc1C(=O)/C=C/c1ccc(C(=O)Nc2ccccc2O)cc1
experimental_system: MDA-MB-435
answer_label: False

Let us examine a further case.
Problem: Entry O=C1/C(=C/c2ccc(Cl)cc2)CN(Cc2cn(CCNc3ccnc4cc(Cl)ccc34)nn2)C/C1=C\c1ccc(Cl)cc1 : call = ?
Solution: True
